system: Vasopressin V1; assay: Vasopressin V1 Antagonist Activity in Conscious Rats (vasopressin vasopressor response); type: in vivo, rat; details: 10 mg/kg i.v., VAS 0.01 i.u./kg, 30 min, SHR
Each entry below carries its recorded % Inhibition.
readout-type: % Inhibition (%)

INSERT INTO measurements (compound_structure_string, system, readout_type, endpoint_value) VALUES
  ('O=C(Nc1ccc(C(=O)N2Cc3cccn3Cc3ccccc32)cc1)C1CCCCC1', 'Vasopressin V1', '% Inhibition', 67),
  ('CCOc1ccccc1C(=O)Nc1ccc(C(=O)N2Cc3cccn3Cc3ccccc32)cc1', 'Vasopressin V1', '% Inhibition', 77),
  ('O=C(Nc1ccc(C(=O)N2Cc3cccn3Cc3ccccc32)cc1)c1sc2ccccc2c1Cl', 'Vasopressin V1', '% Inhibition', 24),
  ('Cc1ccccc1NC(=O)Nc1ccc(C(=O)N2Cc3cccn3Cc3ccccc32)cc1', 'Vasopressin V1', '% Inhibition', 22),
  ('O=C(Cc1ccccc1F)Nc1ccc(C(=O)N2Cc3cccn3Cc3ccccc32)cc1', 'Vasopressin V1', '% Inhibition', 60),
  ('Cc1ccccc1C(=O)Nc1ccc(C(=O)N2Cc3ccc(Cl)n3Cc3ccccc32)cc1', 'Vasopressin V1', '% Inhibition', 45),
  ('Cc1c(CC(=O)Nc2ccc(C(=O)N3Cc4cccn4Cc4ccccc43)cc2)sc2ccccc12', 'Vasopressin V1', '% Inhibition', 20),
  ('COc1cc(Cl)ccc1C(=O)Nc1ccc(C(=O)N2Cc3cccn3Cc3ccccc32)cc1', 'Vasopressin V1', '% Inhibition', 88),
  ('Cc1cc(C(=O)N2Cc3cccn3Cc3ccccc32)ccc1NC(=O)c1ccc(Cl)cc1Cl', 'Vasopressin V1', '% Inhibition', 74),
  ('O=C(Nc1ccc(C(=O)N2Cc3cccn3Cc3ccccc32)cc1)c1ccc(Cl)cc1Cl', 'Vasopressin V1', '% Inhibition', 85),
  ('O=C(Nc1ccc(C(=O)N2Cc3cccn3Cc3ccccc32)cc1)c1ccccc1Cl', 'Vasopressin V1', '% Inhibition', 87),
  ('COc1ccccc1C(=O)Nc1ccc(C(=O)N2Cc3cccn3Cc3ccccc32)cc1', 'Vasopressin V1', '% Inhibition', 79),
  ('O=C(Nc1ccc(C(=O)N2Cc3cccn3Cc3ccccc32)cc1)c1ccc2[nH]ccc2c1', 'Vasopressin V1', '% Inhibition', 1),
  ('CSc1ccccc1C(=O)Nc1ccc(C(=O)N2Cc3cccn3Cc3ccccc32)cc1', 'Vasopressin V1', '% Inhibition', 83),
  ('Cc1ccccc1C(=O)Nc1ccc(C(=O)N2Cc3cccn3-c3ccccc32)cc1', 'Vasopressin V1', '% Inhibition', 25),
  ('O=C(Nc1ccc(C(=O)N2Cc3cccn3Cc3ccccc32)cc1)c1ccccc1C(F)(F)F', 'Vasopressin V1', '% Inhibition', 90),
  ('Cc1ccsc1C(=O)Nc1ccc(C(=O)N2Cc3cccn3Cc3ccccc32)cc1', 'Vasopressin V1', '% Inhibition', 83);
